tested on: U-343 and SH-SY5Y cells; test: β-Amyloid ELISA, secreted β-amyloid peptides 1-40 and 1-42; format: cell-based; conditions: Homo sapiens, inhibitor 20 μM, 24 hours, conditioned medium, untreated cells = 100%, cell line and peptide (1-40/1-42) not given, read-out: Extracellular Aβ-concentration, % of control
endpoint_name: activity at 20 µM (%)
Please respond with the number in % and leave the unit unwritten.

• O=C(OCCc1cccs1)c1ccccc1C(=O)c1cccs1 = 200

Exercise: Tell me the measured activity at 20 µM of `O=C(OC1Cc2ccccc2C1)c1ccccc1C(=O)c1cccs1` , please.
Solution: 205

Exercise: Tell me the measured activity at 20 µM of `O=C(OCc1ccccc1)c1ccccc1C(=O)c1cccs1` , please.
Solution: 197

Exercise: Tell me the measured activity at 20 µM of `O=C(OCCCc1cccs1)c1ccccc1C(=O)c1cccs1` , please.
Solution: 197

Exercise: Tell me the measured activity at 20 µM of `O=C(OCC1c2ccccc2-c2ccccc21)c1ccccc1C(=O)c1cccs1` , please.
Solution: 200

Exercise: Tell me the measured activity at 20 µM of `O=C(NCCCc1ccccc1)c1ccccc1C(=O)c1cccs1` , please.
Solution: 203
